Recorded values, source patent US9840498B2.

SYSTEM_TESTED: human phosphoinositide-3 kinase (PI3K) delta (Homo sapiens (Human), UniProt O00329)
Sequence (O00329 whole entry): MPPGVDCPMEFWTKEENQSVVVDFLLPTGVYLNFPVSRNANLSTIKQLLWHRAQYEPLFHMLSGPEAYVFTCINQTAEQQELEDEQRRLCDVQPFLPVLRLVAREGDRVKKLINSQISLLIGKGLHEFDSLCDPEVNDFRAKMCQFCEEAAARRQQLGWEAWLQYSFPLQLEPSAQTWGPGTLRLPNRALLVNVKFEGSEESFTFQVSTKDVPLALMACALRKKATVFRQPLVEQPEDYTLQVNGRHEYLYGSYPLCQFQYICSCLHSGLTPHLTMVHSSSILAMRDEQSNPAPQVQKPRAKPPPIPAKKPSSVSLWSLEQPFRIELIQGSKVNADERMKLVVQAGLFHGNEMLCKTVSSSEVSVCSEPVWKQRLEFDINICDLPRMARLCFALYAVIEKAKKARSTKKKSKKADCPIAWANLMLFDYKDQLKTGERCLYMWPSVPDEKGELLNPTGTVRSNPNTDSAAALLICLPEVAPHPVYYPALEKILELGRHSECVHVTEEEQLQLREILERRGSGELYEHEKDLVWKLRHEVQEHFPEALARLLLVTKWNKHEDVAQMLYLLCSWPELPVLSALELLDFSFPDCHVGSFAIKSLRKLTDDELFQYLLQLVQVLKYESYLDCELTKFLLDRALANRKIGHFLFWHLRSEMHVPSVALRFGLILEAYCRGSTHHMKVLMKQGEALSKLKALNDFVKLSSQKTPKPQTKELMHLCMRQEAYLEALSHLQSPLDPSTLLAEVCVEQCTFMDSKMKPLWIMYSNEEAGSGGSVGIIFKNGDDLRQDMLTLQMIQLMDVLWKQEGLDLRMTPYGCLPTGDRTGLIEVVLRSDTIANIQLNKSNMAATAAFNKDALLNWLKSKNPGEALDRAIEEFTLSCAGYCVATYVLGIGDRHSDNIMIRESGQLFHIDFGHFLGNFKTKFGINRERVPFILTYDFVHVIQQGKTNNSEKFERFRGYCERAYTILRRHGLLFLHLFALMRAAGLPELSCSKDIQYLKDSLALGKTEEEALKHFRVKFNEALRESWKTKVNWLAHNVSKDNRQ
Sequence (Q63787 whole entry partner): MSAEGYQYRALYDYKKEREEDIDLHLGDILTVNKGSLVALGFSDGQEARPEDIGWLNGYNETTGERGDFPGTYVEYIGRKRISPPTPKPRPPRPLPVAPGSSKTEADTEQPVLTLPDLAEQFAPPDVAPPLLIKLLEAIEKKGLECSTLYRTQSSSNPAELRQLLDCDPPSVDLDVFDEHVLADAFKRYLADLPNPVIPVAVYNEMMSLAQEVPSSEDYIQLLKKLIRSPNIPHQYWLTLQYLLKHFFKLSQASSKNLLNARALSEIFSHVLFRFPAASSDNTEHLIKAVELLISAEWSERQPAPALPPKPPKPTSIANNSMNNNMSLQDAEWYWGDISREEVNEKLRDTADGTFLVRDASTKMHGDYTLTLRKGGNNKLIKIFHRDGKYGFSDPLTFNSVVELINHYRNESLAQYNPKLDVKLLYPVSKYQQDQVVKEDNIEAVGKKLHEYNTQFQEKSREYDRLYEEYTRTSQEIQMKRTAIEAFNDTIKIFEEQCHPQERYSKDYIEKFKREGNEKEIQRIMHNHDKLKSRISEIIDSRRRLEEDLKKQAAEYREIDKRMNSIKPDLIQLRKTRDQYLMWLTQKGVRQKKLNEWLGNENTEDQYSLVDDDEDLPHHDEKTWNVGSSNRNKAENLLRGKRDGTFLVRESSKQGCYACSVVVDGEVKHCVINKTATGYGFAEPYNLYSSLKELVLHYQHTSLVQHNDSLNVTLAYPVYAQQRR
TEST_DESCRIPTION: PI3K-mediated Akt 1/2 (S473) phosphorylation in Rat-1 cells overexpressing PI3K delta
CONDITION_LABEL: cellular assay, p-AKT(Ser473), read-out: Cell PI3K delta IC50
Quick rule for you: IC50 under 7 nM gets yes, anything else gets no.

> print(dat)
                    structure.smiles.string  discrete.label
1  CO[C@H]1C[C@@H](c2nc3cccc(-c4cnn(C)c4)c3c(=O)n2-c2ccccc2)N(c2nc(N)nc3[nH]cnc23)C1              no
2  Cc1ncc(-c2cccc3nc([C@@H]4C[C@H](O)CN4c4nc(N)nc(C)c4C#N)n(-c4ccccc4)c(=O)c23)cn1              no
3  Cc1nc(N)nc(N2C[C@@H](O)C[C@H]2c2nc3ccc(F)c(-c4cn(C)cn4)c3c(=O)n2-c2ccccc2)c1C#N              no
4  Cn1cc(-c2cccc3nc([C@@H]4CCCN4c4ncnc(N)c4C#N)n(-c4ccccc4)c(=O)c23)cn1             yes
5  COc1ncc(-c2cccc3nc([C@@H]4C[C@H](OC)CN4c4nc(N)nc(C)c4C#N)n(-c4ccccc4)c(=O)c23)cn1              no
